Recorded values, source the supplement of paper PMC10681739.

assayed_system: ETS1 (UniProt P14921)
Sequence: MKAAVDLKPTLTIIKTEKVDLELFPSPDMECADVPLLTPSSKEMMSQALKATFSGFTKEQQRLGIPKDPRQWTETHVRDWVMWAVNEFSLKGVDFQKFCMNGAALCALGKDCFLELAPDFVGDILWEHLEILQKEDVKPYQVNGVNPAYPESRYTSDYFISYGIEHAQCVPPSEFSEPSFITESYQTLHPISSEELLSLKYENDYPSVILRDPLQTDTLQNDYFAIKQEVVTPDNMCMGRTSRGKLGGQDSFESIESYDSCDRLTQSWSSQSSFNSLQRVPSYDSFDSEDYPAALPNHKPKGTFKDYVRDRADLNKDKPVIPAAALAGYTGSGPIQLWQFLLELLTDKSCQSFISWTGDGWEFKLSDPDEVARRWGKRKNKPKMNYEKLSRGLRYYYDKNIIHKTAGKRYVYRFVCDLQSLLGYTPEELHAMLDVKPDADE
measurement_notes: ETS1 binding intensity (PBM fluorescence) in presence of RUNX1, normalised to ETS1-only experiment (arbitrary fluorescence units); higher = stronger binding
conditions: ETS1 concentration 1 nM; RUNX1 concentration 25 nM
Consider the following sequences and their measured ETS1 binding intensity readings.
observation_type: ETS1 binding intensity

ordered_residues: CTTAGCGGAAGAGGCGTGACCCAGGCGTACCGCAGG
result: 1320
//
ordered_residues: AGGAGAGGATGTTGCTTGAAGGTGTGGTCTCCTCCA
result: 462
//
ordered_residues: CAACAAGAGGAAATCAGAAACACTGAAGCCACAGCT
result: 463
//
ordered_residues: TATGGCGGGCAGGAAGTGCGGGTGCGCGCCTGCGCA
result: 5650
//
ordered_residues: ATCTCCACATCCTCCCCATCGACCGCATGGTTTACC
result: 653
//
ordered_residues: ATCATCTAGGAGACAGGATGTGGTTAGGGTGTTAAA
result: 59800
//
ordered_residues: CGCCGGATGCATAAAAGACTGGCTGCGGTGGCTCAG
result: 1300
//
ordered_residues: CCCGGGGGCAGGAAATGTCGCCTTACCCACAGCCTT
result: 5930
//
ordered_residues: TCCGGAAGTGGCACTGATGGGCGCCTGCGGCGGGGG
result: 5500
//
ordered_residues: CAGCTTCCGGGCTAATTAGCAGTCGCGGTGTGCCGC
result: 450
//
ordered_residues: AGGGACCCGGATGTCTGGTCTGCGGCTGCTCCTCTA
result: 2120
//
ordered_residues: TCACTCTAACAGGATATTGTGGTTAACTATGTTGCC
result: 17400

====

assayed_system: ETS1 (UniProt P14921)
Sequence: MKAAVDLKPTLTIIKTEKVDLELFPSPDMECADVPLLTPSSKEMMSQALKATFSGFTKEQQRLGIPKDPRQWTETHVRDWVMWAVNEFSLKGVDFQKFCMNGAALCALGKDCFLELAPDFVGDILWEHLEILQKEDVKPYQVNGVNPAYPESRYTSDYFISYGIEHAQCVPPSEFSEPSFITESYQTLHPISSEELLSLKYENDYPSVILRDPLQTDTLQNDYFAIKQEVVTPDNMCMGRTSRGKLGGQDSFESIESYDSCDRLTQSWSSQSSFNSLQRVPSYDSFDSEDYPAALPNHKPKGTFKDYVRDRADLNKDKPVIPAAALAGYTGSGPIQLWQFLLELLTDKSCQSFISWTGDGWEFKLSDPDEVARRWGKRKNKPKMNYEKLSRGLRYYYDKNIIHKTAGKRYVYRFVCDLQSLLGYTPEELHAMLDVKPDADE
measurement_notes: TF binding intensity (PBM fluorescence), negative control probe (arbitrary fluorescence units); higher = stronger binding
observation_type: TF binding intensity

ordered_residues: TCAGCCTGAGAGCTATGTGGGTGAATAAAAATAAAA (protein concentration 1 nM)
result: 499
//
ordered_residues: GCGTTCGAGGGACACTGGACATCTGGTGGCCCTCCA (protein concentration 10 nM)
result: 93.7
//
ordered_residues: GGCTGGTAGAAATACTGCGGCTAATAAAGGCGTGGA (protein concentration 1 nM)
result: 425
//
ordered_residues: GTCAAAGGCTCTGCAGAGTCAAGTAGCCTCCCACTT (protein concentration 10 nM)
result: 112
//
ordered_residues: TTAATTAAGCGGTTTATATCAAGAAAAAGGCATTTC (protein concentration 10 nM)
result: 115
//
ordered_residues: TGACCGGCGCCGACCCGGGGCGCCGAGAGGCCCACC (protein concentration 10 nM)
result: 115
//
ordered_residues: CTATAGTATGTCAAAACCACAAAGACAATGTGCAGC (protein concentration 1 nM)
result: 466
//
ordered_residues: CTGGGCCATTAACCTCAGCAGAAAAATGCTTTTTGC (protein concentration 10 nM)
result: 97.6
//
ordered_residues: CCCAATCTGTAACAACCCACATCTGTTCCTTATTTG (protein concentration 1 nM)
result: 466
//
ordered_residues: TTATAATACATGTGCAGTATATTTTCTTGAAACTTC (protein concentration 10 nM)
result: 110
//
ordered_residues: ACGGAGCTTGCTCTGGCCATCTCTGTCCCTGCCTGT (protein concentration 10 nM)
result: 102
//
ordered_residues: ACATCTCATGGTTTTAAAGTAAATGAATTAAAAGTC (protein concentration 10 nM)
result: 116
//
ordered_residues: CCTGTTTGAAAGAGAAAGAGGGCAGAGTGTGACATG (protein concentration 10 nM)
result: 160
//
ordered_residues: TTCATAACGTTATACACCACAATGCTAAAAAAATGA (protein concentration 1 nM)
result: 672
//
ordered_residues: CCACGCTTTGCCAGCACTTTCCCCTGCCTCGTCTGT (protein concentration 10 nM)
result: 119
//
ordered_residues: TAAATAAATAAACACTTTAGCACATTGACTTTAGAG (protein concentration 10 nM)
result: 111
//
ordered_residues: TAACAGGGAGATAAAACGGGTGAGAGCCCCCTAGGA (protein concentration 10 nM)
result: 103

====

Measured RUNX1 binding intensity accompanies every entry in the list below.
assayed_system: RUNX1 (UniProt Q01196)
Sequence (Q01196 whole entry): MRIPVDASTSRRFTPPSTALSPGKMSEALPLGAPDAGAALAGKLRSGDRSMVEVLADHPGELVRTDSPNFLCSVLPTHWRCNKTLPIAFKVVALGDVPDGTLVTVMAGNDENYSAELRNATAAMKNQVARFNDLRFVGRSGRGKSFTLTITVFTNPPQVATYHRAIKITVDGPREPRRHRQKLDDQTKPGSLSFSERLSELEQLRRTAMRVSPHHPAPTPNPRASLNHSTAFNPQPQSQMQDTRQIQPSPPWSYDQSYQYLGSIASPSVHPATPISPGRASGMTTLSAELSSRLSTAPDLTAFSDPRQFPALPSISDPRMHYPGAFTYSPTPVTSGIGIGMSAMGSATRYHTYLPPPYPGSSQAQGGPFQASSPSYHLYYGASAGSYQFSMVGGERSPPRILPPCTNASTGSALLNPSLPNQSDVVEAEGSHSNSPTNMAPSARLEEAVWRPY
measurement_notes: RUNX1 binding intensity (PBM fluorescence), RUNX1 alone (arbitrary fluorescence units); higher = stronger binding
conditions: RUNX1 concentration 2 nM; ETS1 concentration 0 nM

ordered_residues: AACTTCCTCCGCGCGGGGCCACTGCTACCACAAAGG
RUNX1 binding intensity: 1070
--
ordered_residues: AGGCAAACAGGATGTTCCTCTCCCACATGCAGACTT
RUNX1 binding intensity: 806
--
ordered_residues: GACCACTTCCTTTCTGTGTTTTGTGGTTTCACAACT
RUNX1 binding intensity: 2430
--
ordered_residues: AGATGCAAACACAGGAAACTTGTGGTCTATGCTGCT
RUNX1 binding intensity: 803
--
ordered_residues: TCCCCTTTCCGGGAAGGGTTGGGGATCTGACCACGT
RUNX1 binding intensity: 728
--
ordered_residues: GGCTTCCGCCTGCCGAGCGGCCCCGGACCGCAGGCC
RUNX1 binding intensity: 830
--
ordered_residues: CTTGCCACACTTCCTCTTGTTTTGAACCACTATATT
RUNX1 binding intensity: 2620
--
ordered_residues: GCGAGAGGGAGGAAGTGACTCACCAACCACAACAAA
RUNX1 binding intensity: 970
--
ordered_residues: TGGGCAGGAAGTGGTATCTGATTGTGGTTTTGATTT
RUNX1 binding intensity: 1360
--
ordered_residues: TTTTCTTTCCTAGGAAGTGGTTGCTGGGTTCTGAGG
RUNX1 binding intensity: 831
--
ordered_residues: GAGTTCTCCGCTTCCTTGCGGCCGGCGGGATTAGCC
RUNX1 binding intensity: 907
--
ordered_residues: AATGAAGGAGGGGCAGGATGTGGTCTTGGTGAATCA
RUNX1 binding intensity: 746
--
ordered_residues: GAGGGCCTGGGAGGAAGTGGGTTTTGCATACAGTCC
RUNX1 binding intensity: 673
--
ordered_residues: TTACTGCCGGAACTTGGGACCTTTGTAACCACGTCT
RUNX1 binding intensity: 768
--
ordered_residues: AGGAGAACTTCCGCCCTTACTATATTACCGCCGGTA
RUNX1 binding intensity: 737
--
ordered_residues: TCTGATGTGCCTTCTTCCTGACCACAGCAACTACTA
RUNX1 binding intensity: 1250
--
ordered_residues: GGCGGAAGCTGCCGCTGCCTTGCGCCCCCACACACG
RUNX1 binding intensity: 818
--
ordered_residues: TGAGGAGAGCGAGGAAGTGGTTTTCTCTTCGCACAG
RUNX1 binding intensity: 746
--
ordered_residues: GCCTGCAGCTTCTTCCTGTGGCTTCTGCATCTCAGG
RUNX1 binding intensity: 783
--
ordered_residues: CCCAGAGCTTCCGATTGGCTCTTCTGTGGTGGCGGG
RUNX1 binding intensity: 1010
--
ordered_residues: AACCTCCGACTTCCGGCCGCGCAGCGGTGGGCTGAG
RUNX1 binding intensity: 678
--
ordered_residues: CAGATTCAAGGAAGTGGTGGTGGTTTGGTGTCGTTG
RUNX1 binding intensity: 755
--
ordered_residues: GTGTGAAGGAAGTGTGAGATCAAACCACAGCTGGGT
RUNX1 binding intensity: 874
--
ordered_residues: TACAATTCGCACCGGAACTTGCGGCCCGGCTTCATT
RUNX1 binding intensity: 729
--
ordered_residues: CTACTTTCCGGTCAACGCGGCCTGCGGTACCACCTC
RUNX1 binding intensity: 1160
